Entries and their molar heat capacity at constant pressure values follow.
- procedureSummary: molar heat capacity at constant pressure
- settings: 303.15 K; 101.33 kPa; Liquid; Small sample (50 mg) DSC
Respond with the bare value in J/K/mol.

Consider the following illustrative entries.
| compound | molar heat capacity at constant pressure, J/K/mol |
| --- | --- |
| CCn1cc[n+](C)c1.F[B-](F)(F)F [1-ethyl-3-methylimidazolium tetrafluoroborate] | 306.81 |
| CN1CCCC1=O [N-methylpyrrolidone] | 166.92 |
| c1ccncc1 [pyridine] | 132.71 |

stdin: Record request: molar heat capacity at constant pressure value, item O=C1CCCN1 [2-pyrrolidinone]
stdout: 171.18

* * *

Entries and their speed of sound values follow.
- settings: 293.15 K; 101.33 kPa; Liquid; Sing-around technique in a fixed-path interferometer
Respond with the bare value in m/s.

Consider the following illustrative entries.
| molecule | speed of sound [m/s] |
| --- | --- |
| CN1CCCC1=O | 1565.5 |
| CCn1cc[n+](C)c1.F[B-](F)(F)F [1-ethyl-3-methylimidazolium tetrafluoroborate] | 1631 |
| O=C1CCCN1 | 1650.1 |

stdin: Record request: speed of sound value, item c1ccncc1
stdout: 1442

* * *

Entries and their mass density values follow.
- settings: 308.15 K; 101.33 kPa; Liquid; Vibrating tube method
Respond with the bare value in kg/m3.

Consider the following illustrative entries.
| compound | quantitativeResult |
| --- | --- |
| c1ccncc1 [pyridine] | 968.171 |
| CN1CCCC1=O [N-methylpyrrolidone] | 1018.66 |
| O=C1CCCN1 [2-pyrrolidinone] | 1098.9 |

Next compound, please.
stdin: Record request: mass density value, item CCn1cc[n+](C)c1.F[B-](F)(F)F [1-ethyl-3-methylimidazolium tetrafluoroborate]
stdout: 1272.07

* * *

- settings: 303.15 K; 101.33 kPa; Liquid; Sing-around technique in a fixed-path interferometer
Numbers after ± are expanded uncertainties.
assayReadout: speed of sound

stdin: Record request: speed of sound value, item c1ccncc1 [pyridine]
stdout: 1398 ± 1.2 m/s

stdin: # iterate: CN1CCCC1=O [N-methylpyrrolidone]
stdout: 1527.2 ± 1.2 m/s

stdin: # iterate: CCn1cc[n+](C)c1.F[B-](F)(F)F [1-ethyl-3-methylimidazolium tetrafluoroborate]
stdout: 1607.6 ± 2.1 m/s

stdin: # iterate: O=C1CCCN1 [2-pyrrolidinone]
stdout: 1617.1 ± 1.3 m/s

* * *

Entries and their molar heat capacity at constant pressure values follow.
- procedureSummary: molar heat capacity at constant pressure
- settings: 293.15 K; 101.33 kPa; Liquid; Small sample (50 mg) DSC
Respond with the bare value in J/K/mol.

Consider the following illustrative entries.
| compound | molar heat capacity at constant pressure / J/K/mol |
| --- | --- |
| c1ccncc1 | 130.49 |
| O=C1CCCN1 | 168.36 |
| CN1CCCC1=O | 165.44 |

stdin: Record request: molar heat capacity at constant pressure value, item CCn1cc[n+](C)c1.F[B-](F)(F)F [1-ethyl-3-methylimidazolium tetrafluoroborate]
stdout: 303.41

* * *

- settings: 308.15 K; 101.33 kPa; Liquid; Sing-around technique in a fixed-path interferometer
Numbers after ± are expanded uncertainties.
assayReadout: speed of sound
Just the number plus its unit, please.

| compound | speed of sound |
| --- | --- |
| CN1CCCC1=O | 1507.4 ± 1.2 m/s |
| CCn1cc[n+](C)c1.F[B-](F)(F)F [1-ethyl-3-methylimidazolium tetrafluoroborate] | 1596.3 ± 2.1 m/s |
| c1ccncc1 | 1377.1 ± 1.2 m/s |

Next compound, please.
stdin: Record request: speed of sound value, item O=C1CCCN1
stdout: 1601.8 ± 1.3 m/s

* * *

- settings: 298.15 K; 101.33 kPa; Liquid; Sing-around technique in a fixed-path interferometer
Entries and their speed of sound values follow.
Respond with the bare value in m/s.

Consider the following illustrative entries.
| compound | quantityUnit | quantitativeResult |
| --- | --- | --- |
| CCn1cc[n+](C)c1.F[B-](F)(F)F [1-ethyl-3-methylimidazolium tetrafluoroborate] | m/s | 1619.4 |
| c1ccncc1 | m/s | 1417.8 |

stdin: Record request: speed of sound value, item CN1CCCC1=O
stdout: 1546

stdin: # iterate: O=C1CCCN1
stdout: 1633.9

* * *

- procedureSummary: molar heat capacity at constant pressure
- settings: 308.15 K; 101.33 kPa; Liquid; Small sample (50 mg) DSC
assayReadout: molar heat capacity at constant pressure (J/K/mol)
Respond with the bare value in J/K/mol.

Consider the following illustrative entries.
| compound | quantityUnit | quantitativeResult |
| --- | --- | --- |
| c1ccncc1 [pyridine] | J/K/mol | 133.82 |
| O=C1CCCN1 [2-pyrrolidinone] | J/K/mol | 172.37 |

stdin: Record request: molar heat capacity at constant pressure value, item CCn1cc[n+](C)c1.F[B-](F)(F)F [1-ethyl-3-methylimidazolium tetrafluoroborate]
stdout: 308.58

stdin: # iterate: CN1CCCC1=O [N-methylpyrrolidone]
stdout: 167.21

* * *

- settings: 293.15 K; 101.33 kPa; Liquid; Vibrating tube method
Entries and their mass density values follow.
Respond with the bare value in kg/m3.

| compound | quantityUnit | quantitativeResult |
| --- | --- | --- |
| CN1CCCC1=O [N-methylpyrrolidone] | kg/m3 | 1033.23 |

stdin: Record request: mass density value, item c1ccncc1 [pyridine]
stdout: 983.195

stdin: # iterate: O=C1CCCN1 [2-pyrrolidinone]
stdout: 1111.28

stdin: # iterate: CCn1cc[n+](C)c1.F[B-](F)(F)F [1-ethyl-3-methylimidazolium tetrafluoroborate]
stdout: 1283.89

* * *

- procedureSummary: molar heat capacity at constant pressure
- settings: 298.15 K; 101.33 kPa; Liquid; Small sample (50 mg) DSC
assayReadout: molar heat capacity at constant pressure (J/K/mol)
Respond with the bare value in J/K/mol.

| compound | quantityUnit | quantitativeResult |
| --- | --- | --- |
| O=C1CCCN1 | J/K/mol | 169.55 |
| CN1CCCC1=O | J/K/mol | 166.22 |
| c1ccncc1 | J/K/mol | 131.74 |

stdin: Record request: molar heat capacity at constant pressure value, item CCn1cc[n+](C)c1.F[B-](F)(F)F [1-ethyl-3-methylimidazolium tetrafluoroborate]
stdout: 305.12
